Where do these numbers come from? They come from paper PMC4336329.

Recorded hERG current change (%, negative = inhibition) at 10uM for the following compounds
- assayedTarget: human ether-à-go-go-related gene (hERG) potassium channel (human, UniProt Q12809);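 further: peak tail current of the secondary pulse compared with the same well before compound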
- Sequence (Q12809 whole entry, looked up): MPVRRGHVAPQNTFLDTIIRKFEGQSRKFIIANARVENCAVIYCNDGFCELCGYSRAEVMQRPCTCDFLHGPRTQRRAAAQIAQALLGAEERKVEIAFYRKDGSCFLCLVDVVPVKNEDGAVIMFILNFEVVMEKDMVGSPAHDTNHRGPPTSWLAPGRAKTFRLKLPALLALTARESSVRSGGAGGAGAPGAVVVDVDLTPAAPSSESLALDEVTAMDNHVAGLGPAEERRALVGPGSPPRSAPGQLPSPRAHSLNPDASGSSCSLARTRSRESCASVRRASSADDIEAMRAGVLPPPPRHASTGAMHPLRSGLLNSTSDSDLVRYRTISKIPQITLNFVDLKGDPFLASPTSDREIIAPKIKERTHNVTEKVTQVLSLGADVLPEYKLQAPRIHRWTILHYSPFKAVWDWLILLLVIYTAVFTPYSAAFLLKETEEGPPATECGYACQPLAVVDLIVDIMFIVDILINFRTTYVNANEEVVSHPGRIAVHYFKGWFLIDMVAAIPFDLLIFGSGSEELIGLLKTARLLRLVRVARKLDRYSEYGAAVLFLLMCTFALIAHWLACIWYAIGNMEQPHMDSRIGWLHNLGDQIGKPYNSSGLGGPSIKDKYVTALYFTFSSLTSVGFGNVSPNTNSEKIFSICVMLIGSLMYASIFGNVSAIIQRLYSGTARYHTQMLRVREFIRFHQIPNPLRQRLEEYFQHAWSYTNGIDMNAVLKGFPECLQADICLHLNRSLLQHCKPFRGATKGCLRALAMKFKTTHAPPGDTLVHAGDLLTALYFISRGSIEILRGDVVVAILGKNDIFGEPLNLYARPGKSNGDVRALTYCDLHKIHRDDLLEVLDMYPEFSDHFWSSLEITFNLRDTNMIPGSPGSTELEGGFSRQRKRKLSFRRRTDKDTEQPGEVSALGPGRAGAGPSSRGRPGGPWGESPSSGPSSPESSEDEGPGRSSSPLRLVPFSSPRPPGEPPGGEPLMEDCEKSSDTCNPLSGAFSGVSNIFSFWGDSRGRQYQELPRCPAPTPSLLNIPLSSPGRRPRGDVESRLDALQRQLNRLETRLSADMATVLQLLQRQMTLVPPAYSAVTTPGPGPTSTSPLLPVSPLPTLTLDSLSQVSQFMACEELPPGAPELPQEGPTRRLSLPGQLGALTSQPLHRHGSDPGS
- measurementProtocol: primary screen, population patch clamp on CHO cells stably expressing hERG; higher = less effect of the substance
Out of some 310,000 compounds screened, about 14,000 (4.5%) showed an effect of 50% or more. Effects have a minus sign here. Shown is part of a subset that was picked to be rich in strong results.
Output spec: scalar in %, unitless text.

Below are worked cases with known answers.
{"compound": "CCCN(CCC)CCCNC(=O)c1cn(CC)c2ccc(S(=O)(=O)N3CCOCC3)cc2c1=O", "assayedTarget": "human ether-à-go-go-related gene (hERG) potassium channel (human, UniProt Q12809)", "valueReported": 12.8}
{"compound": "Cc1cc(C(=O)N2CCCC(CCC(=O)N3CCN(c4ccccn4)CC3)C2)c(C)o1 (centres unmarked)", "assayedTarget": "human ether-à-go-go-related gene (hERG) potassium channel (human, UniProt Q12809)", "valueReported": -9.16}
{"compound": "CCn1cc(C(=O)NCCCN2CCN(C)CC2)c(=O)c2cc(S(=O)(=O)N3CCc4ccccc4C3)ccc21", "assayedTarget": "human ether-à-go-go-related gene (hERG) potassium channel (human, UniProt Q12809)", "valueReported": -20.4}
{"compound": "CCN(CC)CCN(C(=O)CCS(=O)(=O)c1ccccc1)c1nc2cc3c(cc2s1)OCO3.Cl", "assayedTarget": "human ether-à-go-go-related gene (hERG) potassium channel (human, UniProt Q12809)", "valueReported": -20.6}
{"compound": "CCCN(CCC)CCCNC(=O)c1cn(CC)c2ccc(S(=O)(=O)N3CCc4ccccc4C3)cc2c1=O", "assayedTarget": "human ether-à-go-go-related gene (hERG) potassium channel (human, UniProt Q12809)", "valueReported": -69.9}
{"compound": "CCCCCN(C(=O)CCC(=O)OCC(=O)N(CC#N)c1ccccc1)c1c(N)n(CCCC)c(=O)[nH]c1=O", "assayedTarget": "human ether-à-go-go-related gene (hERG) potassium channel (human, UniProt Q12809)", "valueReported": -0.196}
{"compound": "CN(C)CCN(C(=O)COc1ccc(Cl)cc1)c1nc2cc3c(cc2s1)OCO3", "assayedTarget": "human ether-à-go-go-related gene (hERG) potassium channel (human, UniProt Q12809)", "valueReported": -5.52}
{"compound": "CN(C)CCN(C(=O)CCS(=O)(=O)c1ccccc1)c1nc2cc3c(cc2s1)OCO3.Cl", "assayedTarget": "human ether-à-go-go-related gene (hERG) potassium channel (human, UniProt Q12809)", "valueReported": 7.43}

Lab note: CCn1cc(C(=O)NCCc2ccccc2)c(=O)c2cc(S(=O)(=O)N3CCCC3)ccc21 gave hERG current change (%, negative = inhibition) at 10uM of 1.7

hERG current change (%, negative = inhibition) at 10uM for CC(=O)N/N=C(\C)c1ccc2c(c1)OCCO2 is 11

COc1ccc(/C=N/n2cncn2)cc1Cn1nc(C)c([N+](=O)[O-])c1C yielded hERG current change (%, negative = inhibition) at 10uM of -53.6

* * *

Item-by-item account of hERG current change (%, negative = inhibition) at 10uM
- assayedTarget: human ether-à-go-go-related gene (hERG) potassium channel (human);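 further: peak tail current of the secondary pulse compared with the same well before compound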
- measurementProtocol: primary screen, population patch clamp on CHO cells stably expressing hERG; higher = less effect of the substance
- Experimental: Briefly, Chinese hamster ovary (CHO) cells stably expressing the hERG channel were dislodged from tissue culture flasks and dispensed into PPC plates. […] During the recording, background leak currents were estimated by a 100 ms step to -80 mV from an initial holding potential of -70 mV and subtracted from the subsequent current measurement. The campaign was conducted in two phases using slight differences in recording protocol. […]
Out of some 310,000 compounds screened, about 14,000 (4.5%) showed an effect of 50% or more. Effects have a minus sign here. This is one part of a sample in which strong results are shown more often than they occur.
Write the number in % without appending the unit.

Take a look at these entries with their results.
{"compound": "CC1CCN(Cc2c(C(=O)N/N=C/c3cc(Br)ccc3O)nnn2-c2nonc2N)CC1", "valueReported": 19.9}
{"compound": "CCOC(=O)N1CCN(CCC(=O)Nc2ccc(C)cc2)CC1", "valueReported": 4.65}
{"compound": "Clc1cccc(C2Nc3cccc4cccc(c34)N2)c1Cl", "valueReported": 16.2}
{"compound": "COC(=O)c1c(NC(=O)CCS(=O)(=O)c2ccccc2)sc2c1CCN(C)C2.Cl", "valueReported": -48}
{"compound": "O=C(N/N=C/c1ccc(O)cc1)NC12CC3CC(CC(C3)C1)C2", "valueReported": -55.7}

GET /values?item= Cc1ccc(S(=O)(=O)C2(C(=O)Nc3cccc(F)c3)CC2)cc1 &system= human ether-à-go-go-related gene (hERG) potassium channel (human) returns hERG current change (%, negative = inhibition) at 10uM: 0.141

hERG current change (%, negative = inhibition) at 10uM on human ether-à-go-go-related gene (hERG) potassium channel (human) for CSc1nnc2c(n1)OC(c1ccccn1)N(C(C)=O)c1ccccc1-2 (centres unmarked) is 1.42

The recorded hERG current change (%, negative = inhibition) at 10uM with human ether-à-go-go-related gene (hERG) potassium channel (human) for CCOC(=O)N1CCN(CC(=O)Nc2ccc(OC)cc2)CC1 was -15.2

The value of hERG current change (%, negative = inhibition) at 10uM recorded for COc1cc(/C=N/NC(=O)NC23CC4CC(CC(C4)C2)C3)ccc1OCC(N)=O when tested on human ether-à-go-go-related gene (hERG) potassium channel (human) reads -57

The measured hERG current change (%, negative = inhibition) at 10uM that Cc1cccc(NC(=O)NCCN2CCN(c3ccccc3)CC2)c1C showed for human ether-à-go-go-related gene (hERG) potassium channel (human) is -9.69

Summary line: O=C(N/N=C/c1ccc(O)c(O)c1)NC12CC3CC(CC(C3)C1)C2 , human ether-à-go-go-related gene (hERG) potassium channel (human), reported hERG current change (%, negative = inhibition) at 10uM = -11.8

Bench note, human ether-à-go-go-related gene (hERG) potassium channel (human): O=C1CCc2ccccc2N1 , hERG current change (%, negative = inhibition) at 10uM reads 16.5

I looked up CC(=O)N1CCc2c(sc(NC(=O)CCS(=O)(=O)c3ccccc3)c2C(N)=O)C1 and its hERG current change (%, negative = inhibition) at 10uM for human ether-à-go-go-related gene (hERG) potassium channel (human) was 5.3

Item N#CC1=C(N)NC(SCC(=O)Nc2ccc(Br)cc2)=C(C#N)C12CCCCC2 ; assay system human ether-à-go-go-related gene (hERG) potassium channel (human); hERG current change (%, negative = inhibition) at 10uM reported as 13.4

Field hERG current change (%, negative = inhibition) at 10uM (human ether-à-go-go-related gene (hERG) potassium channel (human)), entry C=CCn1sc(N)c(C(=O)OCC)c1=S : 0.673

// assay human ether-à-go-go-related gene (hERG) potassium channel (human), entry Clc1ccc(-c2csc(N/N=C\c3cccnc3)n2)cc1 , hERG current change (%, negative = inhibition) at 10uM value = 6.05

Readout hERG current change (%, negative = inhibition) at 10uM for CCOC(=O)N1CCN(CC(=O)Nc2ccc(F)cc2F)CC1 , test system human ether-à-go-go-related gene (hERG) potassium channel (human), was -28.6

Summary line: CCOC(=O)N1CCN(CC(=O)Nc2ccc(F)c(F)c2F)CC1 , human ether-à-go-go-related gene (hERG) potassium channel (human), reported hERG current change (%, negative = inhibition) at 10uM = 7.7

The compound O=C(c1cc(-c2ccc(Cl)cc2)n(-c2ccc(Cl)c(Cl)c2)n1)N1CCOCC1 on human ether-à-go-go-related gene (hERG) potassium channel (human): hERG current change (%, negative = inhibition) at 10uM was -57

The observed hERG current change (%, negative = inhibition) at 10uM for COC(=O)c1ccccc1N/C=C/C(=O)c1ccc(Br)cc1 when tested with human ether-à-go-go-related gene (hERG) potassium channel (human) stands at 16.1

# lookup: O=C1CC(c2ccccc2)CC(O)=C1C=NCCCN1CCOCC1 (centres unmarked) on human ether-à-go-go-related gene (hERG) potassium channel (human), hERG current change (%, negative = inhibition) at 10uM = -9.92

Measured on human ether-à-go-go-related gene (hERG) potassium channel (human), CCN(C(=O)COC(=O)CCS(=O)(=O)c1ccc(C)cc1)C1CCS(=O)(=O)C1 (centres unmarked) has a documented hERG current change (%, negative = inhibition) at 10uM of 12.9

Known value: human ether-à-go-go-related gene (hERG) potassium channel (human) hERG current change (%, negative = inhibition) at 10uM of the compound O=C(O)c1cc(-c2ccc(Cl)cc2)n(-c2ccc(Cl)cc2)n1 equals 38.2

// compound O=C(N/N=C/c1ccncc1)NC12CC3CC(CC(C3)C1)C2 , assay human ether-à-go-go-related gene (hERG) potassium channel (human), hERG current change (%, negative = inhibition) at 10uM value: -26.6

hERG current change (%, negative = inhibition) at 10uM value, target or system human ether-à-go-go-related gene (hERG) potassium channel (human), for COc1cc(/C=N/NC(=O)NC23CC4CC(CC(C4)C2)C3)ccc1O : -34.3

Entry O=C(O)c1cc(-c2ccc(Cl)cc2)n(-c2cccc(Cl)c2)n1 , tested on human ether-à-go-go-related gene (hERG) potassium channel (human), has a reported hERG current change (%, negative = inhibition) at 10uM of 23.4
